- tested target: human NPBWR1 (Homo sapiens)
- Sequence (P48145 whole entry): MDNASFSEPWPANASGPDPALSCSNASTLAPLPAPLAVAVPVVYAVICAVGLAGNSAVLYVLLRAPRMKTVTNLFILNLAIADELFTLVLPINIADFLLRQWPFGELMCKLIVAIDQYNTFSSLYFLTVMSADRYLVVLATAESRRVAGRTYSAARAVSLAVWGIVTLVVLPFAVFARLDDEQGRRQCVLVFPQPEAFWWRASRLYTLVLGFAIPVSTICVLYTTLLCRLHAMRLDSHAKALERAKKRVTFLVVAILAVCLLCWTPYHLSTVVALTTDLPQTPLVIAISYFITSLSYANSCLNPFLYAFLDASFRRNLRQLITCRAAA
- protocol notes: NPBWR1 antagonist calcium release assay
- Assay type: cell-based
- condition: NPBWR1 IC50 ratio versus 7y
observable: fold less potent than 7y

Consider the reported fold less potent than 7y for these compounds:
compound	fold less potent than 7y
COc1ccc(Oc2c(Cl)cnn(C(C)c3cccc4ccccc34)c2=O)cc1 (stereo not shown) [Compound 7aj]	~ 13 fold
COc1ccc(Oc2c(Cl)cnn(Cc3ccc(Br)c4ccccc34)c2=O)cc1 [Compound 7ad]	~ 14 fold

Which fold less potent than 7y is listed for CCCOc1ccc(Oc2c(Cl)cnn(Cc3cccc4ccccc34)c2=O)cc1 [Compound 15f] ?
~ 8 fold

Which fold less potent than 7y is listed for CCOC(=O)C(c1cccc2ccccc12)n1ncc(Cl)c(Oc2ccc(OC)cc2)c1=O (stereo not shown) [Compound 7ag] ?
~ 3 fold

Which fold less potent than 7y is listed for COc1ccc(Oc2c(Cl)cnn(Cc3cccc4ncccc34)c2=O)cc1 [Compound 7af] ?
~ 24 fold

Which fold less potent than 7y is listed for COc1ccc(Oc2c(Cl)cnn(CCc3cccc4ccccc34)c2=O)cc1 [Compound 7z] ?
30 fold

Which fold less potent than 7y is listed for COc1ccc(Oc2c(Cl)cnn(C(CO)c3cccc4ccccc34)c2=O)cc1 (stereo not shown) [Compound 7ah] ?
~ 18 fold

Which fold less potent than 7y is listed for O=c1c(Oc2ccc(CO)cc2)c(Cl)cnn1Cc1cccc2ccccc12 [Compound 15b] ?
~ 31 fold

Which fold less potent than 7y is listed for COc1cc(Oc2c(Cl)cnn(Cc3cccc4ccccc34)c2=O)cc(OC)c1OC [Compound 15p] ?
~ 13 fold

Which fold less potent than 7y is listed for O=c1c(Oc2ccc(OC(F)(F)F)cc2)c(Cl)cnn1Cc1cccc2ccccc12 [Compound 15h] ?
~ 39 fold
